Molecular target: T1, human soluble DLL4 (R&D systems catalog #1056-D4-050) (human, UniProt Q9NR61 27-524)
T1 construct: Catalog number as printed; perhaps the same product as #1506-D4; also called antigen DLL4
T1 sequence (Q9NR61 27-524 limits assumed): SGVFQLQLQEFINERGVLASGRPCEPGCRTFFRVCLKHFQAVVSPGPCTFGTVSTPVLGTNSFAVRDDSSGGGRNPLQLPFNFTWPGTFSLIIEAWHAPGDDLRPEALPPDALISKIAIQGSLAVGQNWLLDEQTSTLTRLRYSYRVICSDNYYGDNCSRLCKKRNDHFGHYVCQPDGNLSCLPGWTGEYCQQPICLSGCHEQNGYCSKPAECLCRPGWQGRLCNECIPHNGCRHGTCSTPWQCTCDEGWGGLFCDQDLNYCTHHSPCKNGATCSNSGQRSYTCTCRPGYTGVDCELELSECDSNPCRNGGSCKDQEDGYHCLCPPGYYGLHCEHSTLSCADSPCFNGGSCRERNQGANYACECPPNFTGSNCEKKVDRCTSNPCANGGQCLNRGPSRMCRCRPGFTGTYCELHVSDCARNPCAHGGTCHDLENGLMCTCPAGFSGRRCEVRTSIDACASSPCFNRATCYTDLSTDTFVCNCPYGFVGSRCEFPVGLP
Assay: Biacore T100, antibody immobilised, soluble human DLL4 as analyte
Below: a set of entries, each annotated with reported koff.
Respond numerically; units are s⁻¹ and should not be typed.

- Binder: "21H3 (antibody, IgG4, V domains shown, Fully human; used for IgG4 rows and where no isotype is printed; also called 21H3 IgG4) VH: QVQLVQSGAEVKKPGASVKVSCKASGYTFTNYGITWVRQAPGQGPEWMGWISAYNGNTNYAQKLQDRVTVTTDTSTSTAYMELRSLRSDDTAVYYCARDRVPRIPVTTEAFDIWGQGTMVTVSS VL: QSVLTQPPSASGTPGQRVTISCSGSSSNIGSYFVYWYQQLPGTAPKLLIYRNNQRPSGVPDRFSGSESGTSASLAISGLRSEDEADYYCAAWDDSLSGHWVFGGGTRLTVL"
  Experimental Readout: "koff"
  Measurement: 0.000152
- Binder: "9G8 (antibody, IgG4, V domains shown, Fully human; used for IgG4 rows and where no isotype is printed; also called 9G8 IgG4) VH: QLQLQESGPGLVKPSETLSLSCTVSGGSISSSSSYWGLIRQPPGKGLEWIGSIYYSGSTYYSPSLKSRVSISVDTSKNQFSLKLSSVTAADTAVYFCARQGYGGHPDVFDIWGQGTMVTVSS VL: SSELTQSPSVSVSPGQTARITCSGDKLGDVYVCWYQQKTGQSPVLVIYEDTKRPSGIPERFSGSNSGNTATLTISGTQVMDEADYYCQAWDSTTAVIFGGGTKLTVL"
  Experimental Readout: "koff"
  Measurement: "1.36e-05"
- Binder: "4B4 (antibody, IgG4, V domains shown, Fully human; used for IgG4 rows and where no isotype is printed; also called 4B4 IgG4; 4B4.1) VH: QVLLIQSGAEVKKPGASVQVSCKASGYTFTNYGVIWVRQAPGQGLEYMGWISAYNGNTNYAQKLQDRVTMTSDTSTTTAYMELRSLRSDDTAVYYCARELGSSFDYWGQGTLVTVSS VL: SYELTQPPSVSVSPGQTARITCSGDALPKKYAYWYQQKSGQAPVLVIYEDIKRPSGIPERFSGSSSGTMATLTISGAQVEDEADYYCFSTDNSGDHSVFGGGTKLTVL"
  Experimental Readout: "koff"
  Measurement: "3.33e-05"
- Binder: "2H10 (antibody, IgG4, V domains shown, Fully human; used for IgG4 rows and where no isotype is printed; also called 2H10 IgG4) VH: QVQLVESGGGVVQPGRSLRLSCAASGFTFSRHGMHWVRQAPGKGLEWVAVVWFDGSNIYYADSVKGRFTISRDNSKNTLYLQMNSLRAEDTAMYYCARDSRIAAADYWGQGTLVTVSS VL: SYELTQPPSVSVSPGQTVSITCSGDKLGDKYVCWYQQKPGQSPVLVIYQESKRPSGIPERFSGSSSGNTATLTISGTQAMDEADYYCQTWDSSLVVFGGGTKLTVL"
  Experimental Readout: "koff"
  Measurement: "4.02e-05"

# koff (binder: 21H3 IgG2 (antibody, V domains shown, Formatted as IgG2) VH: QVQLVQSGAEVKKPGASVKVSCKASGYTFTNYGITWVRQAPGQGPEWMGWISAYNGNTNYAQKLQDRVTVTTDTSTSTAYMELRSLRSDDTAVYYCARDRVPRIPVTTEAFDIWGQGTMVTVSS VL: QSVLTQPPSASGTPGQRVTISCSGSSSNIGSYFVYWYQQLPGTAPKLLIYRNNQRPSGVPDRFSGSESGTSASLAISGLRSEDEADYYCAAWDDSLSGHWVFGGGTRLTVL ) is 0.000155
